Experimental system: T1, cynomolgus monkey (Macaca fascicularis) TfR1 (cynomolgus monkey (Macaca fascicularis), UniProt Q5RDH6 89-760 (Pongo abelii entry), limits assumed)
T1 construct: also called cTfR1; cyTfR1
T1 chain: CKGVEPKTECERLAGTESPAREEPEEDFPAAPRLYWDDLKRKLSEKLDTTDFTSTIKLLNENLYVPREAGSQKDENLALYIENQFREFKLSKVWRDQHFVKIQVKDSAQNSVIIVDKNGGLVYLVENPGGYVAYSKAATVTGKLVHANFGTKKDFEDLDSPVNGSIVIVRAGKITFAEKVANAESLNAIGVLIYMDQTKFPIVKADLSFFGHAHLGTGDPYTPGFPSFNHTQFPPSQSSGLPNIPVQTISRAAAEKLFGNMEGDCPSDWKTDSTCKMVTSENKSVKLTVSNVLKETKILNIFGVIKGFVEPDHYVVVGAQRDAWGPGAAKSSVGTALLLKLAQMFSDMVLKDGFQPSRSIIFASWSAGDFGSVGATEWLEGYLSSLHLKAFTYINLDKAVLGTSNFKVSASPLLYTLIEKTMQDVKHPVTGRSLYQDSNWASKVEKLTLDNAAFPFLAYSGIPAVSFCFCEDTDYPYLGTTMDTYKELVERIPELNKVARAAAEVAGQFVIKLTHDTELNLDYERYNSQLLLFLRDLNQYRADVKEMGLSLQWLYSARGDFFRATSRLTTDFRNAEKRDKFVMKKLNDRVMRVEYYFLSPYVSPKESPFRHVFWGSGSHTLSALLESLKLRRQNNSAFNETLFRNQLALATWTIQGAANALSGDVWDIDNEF
Assay info: ELISA, d0
Experimental endpoint: pEC50
Expect pEC50 as a plain number equal to -log10 of the molar concentration.

Worked cases, answers included:
humanized anti-TfR Fab 3M12 VH4/Vk2 (Fab, V domains shown) VH: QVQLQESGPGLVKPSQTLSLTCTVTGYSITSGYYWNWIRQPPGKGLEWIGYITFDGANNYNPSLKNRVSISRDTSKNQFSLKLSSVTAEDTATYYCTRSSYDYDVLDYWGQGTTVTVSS VL: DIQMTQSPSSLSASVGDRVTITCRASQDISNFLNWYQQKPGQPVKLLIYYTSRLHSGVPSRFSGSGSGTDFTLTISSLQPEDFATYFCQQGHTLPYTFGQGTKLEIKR | 8.85
humanized anti-TfR Fab 5H12 VH5 (C33Y)/Vk4 (Fab, V domains shown) VH: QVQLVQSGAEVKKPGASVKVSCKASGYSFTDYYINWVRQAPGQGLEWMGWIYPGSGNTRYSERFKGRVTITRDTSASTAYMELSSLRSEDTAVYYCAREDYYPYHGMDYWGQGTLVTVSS VL: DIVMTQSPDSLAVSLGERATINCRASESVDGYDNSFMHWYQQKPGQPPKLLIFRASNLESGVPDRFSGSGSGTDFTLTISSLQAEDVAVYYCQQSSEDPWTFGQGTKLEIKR | 8.48

Continue with the next binder.
Query block: Return reported pEC50; argument: humanized anti-TfR Fab 3A4 VH3 (N54S)/Vk4 (Fab, V domains shown) VH: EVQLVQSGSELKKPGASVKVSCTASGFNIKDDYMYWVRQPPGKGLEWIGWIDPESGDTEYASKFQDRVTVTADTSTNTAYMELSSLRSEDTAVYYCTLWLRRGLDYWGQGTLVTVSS VL: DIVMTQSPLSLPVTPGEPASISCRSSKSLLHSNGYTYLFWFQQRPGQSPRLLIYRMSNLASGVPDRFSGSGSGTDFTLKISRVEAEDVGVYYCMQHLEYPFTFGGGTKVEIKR
Result block: 6.40

Data provenance: patent US20230285582A1
